# Read-out: Transforming growth factor beta 1 (TGFb1), TGFB1 (gene 7040)
# assayNotes: BSK_KF3CT_TGFb1: BioMAP Diversity Plus: KF3CT Assay for Transforming growth factor beta 1 (TGFb1) Biomarker Activity (AID 2283072)
# conditionNotes: primary human keratinocytes with fibroblasts; actives raise or lower the signal
The source made the active and inactive calls. Rule for the calls: active = hit-call score of the fitted dose curve at least 0.9, where 1 is the maximum; inactive = score below 0.9.
Possible outcomes: True = active, False = inactive

compound: C=CC(=O)NCNC(=O)C=C
groupLabel: False
--
compound: CC(C)(O)C(=O)Nc1ccc([N+](=O)[O-])c(C(F)(F)F)c1
groupLabel: False
--
compound: CC#Cc1cc(C)nc(Nc2ccccc2)n1
groupLabel: False
--
compound: Oc1ccc(C(c2ccc(O)cc2)(C(F)(F)F)C(F)(F)F)cc1
groupLabel: True
--
compound: Cc1cc2c3c(c1)C(c1ccccc1)=N[C@@H](NC(=O)c1ccncc1)C(=O)N3CC2
groupLabel: False
--
compound: CC(c1ccc(O)cc1)(c1ccc(O)cc1)c1ccc(O)cc1
groupLabel: True
--
compound: CCCCCCOC(=O)c1ccccc1C(=O)OCCCCCC
groupLabel: False
--
compound: O=C(O)C(F)(F)C(F)(F)C(F)(F)C(F)(F)C(F)(F)F
groupLabel: False
--
compound: O=C(O)C(F)(F)C(F)(F)C(F)(F)C(F)(F)C(F)(F)C(F)(F)C(F)(F)C(F)(F)C(F)(F)F
groupLabel: True
--
compound: Cc1cc(O)ccc1Cl
groupLabel: False
--
compound: CC(C)C(=O)OCC(C)(C)C(OC(=O)C(C)C)C(C)C (configuration not stated)
groupLabel: False
--
compound: CN(C)c1nc(=O)n(C2CCCCC2)c(=O)n1C
groupLabel: False
--
compound: CCCCCCCCCc1ccc(O)cc1
groupLabel: True
--
compound: CCNc1nc(NC(C)C)nc(SC)n1
groupLabel: False
--
compound: O=NN(c1ccccc1)c1ccccc1
groupLabel: False
--
compound: CCOC(=O)C(O)(c1ccc(Cl)cc1)c1ccc(Cl)cc1
groupLabel: False
--
compound: Clc1ccc(C(c2ccccc2Cl)C(Cl)(Cl)Cl)cc1 (configuration not stated)
groupLabel: True
--
compound: ClC1=C(Cl)[C@]2(Cl)[C@@H]3[C@H]4C[C@H]([C@@H]5O[C@H]45)[C@@H]3[C@@]1(Cl)C2(Cl)Cl
groupLabel: False
--
compound: CCC(C)(c1ccc(O)cc1)c1ccc(O)cc1
groupLabel: False
--
compound: c1ccc(-c2ccccc2)cc1
groupLabel: False
--
compound: c1cc2ccc3cccc4ccc(c1)c2c34
groupLabel: False
--
compound: CCOCCOC(C)=O
groupLabel: False

====

# assayTarget: human Matrix Metalloproteinase-1 (MMP1), MMP1 (gene 4312) (UniProt P03956)
# Sequence (P03956 whole entry, looked up): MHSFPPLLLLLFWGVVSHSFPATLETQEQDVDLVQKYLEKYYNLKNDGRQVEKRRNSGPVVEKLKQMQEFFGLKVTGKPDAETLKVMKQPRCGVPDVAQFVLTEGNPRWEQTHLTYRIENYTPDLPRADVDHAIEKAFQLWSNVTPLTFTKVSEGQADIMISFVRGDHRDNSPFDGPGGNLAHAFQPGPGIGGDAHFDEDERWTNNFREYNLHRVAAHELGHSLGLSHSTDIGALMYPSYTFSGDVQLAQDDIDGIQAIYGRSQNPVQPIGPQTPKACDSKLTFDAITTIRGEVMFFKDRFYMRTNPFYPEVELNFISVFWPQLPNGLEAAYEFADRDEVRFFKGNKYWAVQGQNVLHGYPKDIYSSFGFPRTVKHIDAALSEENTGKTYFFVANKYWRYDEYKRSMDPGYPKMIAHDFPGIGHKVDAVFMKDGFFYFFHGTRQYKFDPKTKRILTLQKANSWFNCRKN
# assayNotes: NVS_ENZ_hMMP1: NovaScreen (NVS) Enzymatic Assay for human Matrix Metalloproteinase-1 (MMP1) (AID 2283181)
Records with an inconclusive call do not appear. Calls of active or inactive are those of the source. How the source made its calls: active means hit-call score of the fitted dose curve at least 0.9, where 1 is the maximum; inconclusive means response in the unintended direction; inactive means score below 0.9.
Possible outcomes: label 1 (active), label 0 (inactive)

chemicalString: CC(C)(c1ccccc1)c1ccc(O)cc1
groupLabel: label 1
--
chemicalString: O=NN(c1ccccc1)c1ccccc1
groupLabel: label 0
--
chemicalString: Oc1ccc(C(c2ccc(O)cc2)(C(F)(F)F)C(F)(F)F)cc1
groupLabel: label 1
--
chemicalString: CCCCCCCCCC[N+](C)(C)CCCCCCCCCC
groupLabel: label 0

Every entry's value here was drawn from PubChem BioAssay (EPA / NIEHS).
